The reader will find pKi measurements below, all made with UniProt P41144.
Sequence (P41144 whole entry): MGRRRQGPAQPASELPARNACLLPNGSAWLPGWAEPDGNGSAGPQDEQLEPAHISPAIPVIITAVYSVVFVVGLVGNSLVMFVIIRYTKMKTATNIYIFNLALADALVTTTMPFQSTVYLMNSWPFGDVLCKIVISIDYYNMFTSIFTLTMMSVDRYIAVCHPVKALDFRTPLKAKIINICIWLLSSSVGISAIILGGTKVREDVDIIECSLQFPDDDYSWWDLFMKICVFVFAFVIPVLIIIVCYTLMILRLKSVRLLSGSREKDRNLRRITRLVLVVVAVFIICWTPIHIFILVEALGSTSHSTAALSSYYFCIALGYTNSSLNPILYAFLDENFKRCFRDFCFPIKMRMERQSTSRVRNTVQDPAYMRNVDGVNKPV
pKi here is simply -log10 of the concentration when that concentration is written in mol/L.

// solved cases for pKi follow
CC[C@H](C)[C@H](NC(=O)[C@H](CCCNC(=N)N)NC(=O)[C@H](CCCNC(=N)N)NC(=O)[C@H](CC(C)C)NC(=O)[C@H](Cc1ccccc1)NC(=O)CNC(=O)CNC(=O)[C@@H](N)Cc1ccc(O)cc1)C(=O)N[C@@H](CCCNC(=N)N)C(=O)N1CCC[C@H]1C(=O)N[C@@H](CCCCN)C(=O)N[C@@H](CC(C)C)C(=O)N[C@@H](CCCCN)C(=O)N[C@@H](Cc1c[nH]c2ccccc12)C(=O)N[C@@H](CC(=O)O)C(=O)N[C@@H](CC(N)=O)C(=O)N[C@@H](CCC(N)=O)C(=O)O : 9.64
CC(C)C[C@H](NC(=O)[C@@H](Cc1c[nH]c2ccccc12)NC(=O)CNC(=O)CNC(=O)[C@@H](N)Cc1ccc(O)cc1)C(=O)N[C@@H](CCCN=C(N)N)C(=O)N[C@@H](CCCN=C(N)N)C(=O)N[C@H](Cc1c[nH]c2ccccc12)C(=O)N[C@@H](CCCN=C(N)N)C(=O)N1CCC[C@@H]1C(=O)N[C@@H](CCCCN)C(=O)O : 7.14
CC(C)C[C@H](NC(=O)[C@H](Cc1ccccc1)NC(=O)CNC(=O)[C@@H](Cc1c[nH]c2ccccc12)NC(=O)[C@@H](N)Cc1ccc(O)cc1)C(=O)N[C@@H](CCCN=C(N)N)C(=O)N[C@@H](CCCN=C(N)N)C(=O)N[C@H](Cc1c[nH]c2ccccc12)C(=O)N[C@@H](CCCN=C(N)N)C(=O)N1CCC[C@@H]1C(=O)N[C@@H](CCCCN)C(=O)O : 6.82
CC(C)C[C@H](NC(=O)[C@H](Cc1ccccc1)NC(=O)[C@@H](Cc1c[nH]c2ccccc12)NC(=O)CNC(=O)[C@@H](N)Cc1ccc(O)cc1)C(=O)N[C@@H](CCCN=C(N)N)C(=O)N[C@@H](CCCN=C(N)N)C(=O)N[C@H](Cc1c[nH]c2ccccc12)C(=O)N[C@@H](CCCN=C(N)N)C(=O)N1CCC[C@@H]1C(=O)N[C@@H](CCCCN)C(=O)O : 7.71
CC(C)C[C@H](NC(=O)[C@H](Cc1ccccc1)NC(=O)CNC(=O)CNC(=O)[C@@H](N)Cc1ccc(O)cc1)C(=O)N[C@@H](CCCN=C(N)N)C(=O)N[C@@H](CCCN=C(N)N)C(=O)N[C@H](Cc1c[nH]c2ccccc12)C(=O)N[C@@H](CCCN=C(N)N)C(=O)N1CCC[C@@H]1C(=O)N[C@@H](CCCCN)C(=O)O : 10.31
CC(C)C[C@H](NC(=O)[C@@H](Cc1c[nH]c2ccccc12)NC(=O)CNC(=O)[C@@H](Cc1c[nH]c2ccccc12)NC(=O)[C@@H](N)Cc1ccc(O)cc1)C(=O)N[C@@H](CCCN=C(N)N)C(=O)N[C@@H](CCCN=C(N)N)C(=O)N[C@H](Cc1c[nH]c2ccccc12)C(=O)N[C@@H](CCCN=C(N)N)C(=O)N1CCC[C@@H]1C(=O)N[C@@H](CCCCN)C(=O)O : 7.62

Please turn your attention to the following entry.
Enter recorded pKi with UniProt P41144 for `NCCCC[C@H](NC(=O)[C@H]1CCCN1C(=O)[C@H](CCCN=C(N)N)NC(=O)[C@@H](Cc1c[nH]c2ccccc12)NC(=O)[C@H](CCCN=C(N)N)NC(=O)[C@H](CCCN=C(N)N)NC(=O)[C@@H](Cc1c[nH]c2ccccc12)NC(=O)[C@H](Cc1ccccc1)NC(=O)CNC(=O)CNC(=O)[C@@H](N)Cc1ccc(O)cc1)C(=O)O` here.
7.69

====

# maps each entry to its IC50
system name: Mu-type opioid receptor (Cavia porcellus, UniProt P97266)
Sequence (P97266 whole entry): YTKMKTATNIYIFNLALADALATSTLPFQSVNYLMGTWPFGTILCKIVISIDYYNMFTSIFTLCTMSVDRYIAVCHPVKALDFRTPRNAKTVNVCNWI
assay explanation: Compound was evaluated for the agonistic activity against Opioid receptor mu 1 in guinea pig ileum.
Number in nM, nothing else.

CC(C)C[C@H](NC(=O)[C@H](Cc1ccccc1)NC(=O)[C@@H](Cc1c[nH]c2ccccc12)NC(=O)CNC(=O)[C@@H](N)Cc1ccc(O)cc1)C(=O)N[C@@H](CCCN=C(N)N)C(=O)N[C@@H](CCCN=C(N)N)C(=O)N[C@H](Cc1c[nH]c2ccccc12)C(=O)N[C@@H](CCCN=C(N)N)C(=O)N1CCC[C@@H]1C(=O)N[C@@H](CCCCN)C(=O)O : 222
NCCCC[C@H](NC(=O)[C@H]1CCCN1C(=O)[C@H](CCCN=C(N)N)NC(=O)[C@@H](Cc1c[nH]c2ccccc12)NC(=O)[C@H](CCCN=C(N)N)NC(=O)[C@H](CCCN=C(N)N)NC(=O)[C@@H](Cc1c[nH]c2ccccc12)NC(=O)[C@H](Cc1ccccc1)NC(=O)CNC(=O)CNC(=O)[C@@H](N)Cc1ccc(O)cc1)C(=O)O : 69
CC(C)C[C@H](NC(=O)[C@H](Cc1ccccc1)NC(=O)CNC(=O)CNC(=O)[C@@H](N)Cc1ccc(O)cc1)C(=O)N[C@@H](CCCN=C(N)N)C(=O)N[C@@H](CCCN=C(N)N)C(=O)N[C@H](Cc1c[nH]c2ccccc12)C(=O)N[C@@H](CCCN=C(N)N)C(=O)N1CCC[C@@H]1C(=O)N[C@@H](CCCCN)C(=O)O : 2.84

Kindly review the next compound as well.
Hello, please tell me recorded IC50 for this one: `CC(C)C[C@H](NC(=O)[C@H](Cc1ccccc1)NC(=O)CNC(=O)[C@@H](Cc1c[nH]c2ccccc12)NC(=O)[C@@H](N)Cc1ccc(O)cc1)C(=O)N[C@@H](CCCN=C(N)N)C(=O)N[C@@H](CCCN=C(N)N)C(=O)N[C@H](Cc1c[nH]c2ccccc12)C(=O)N[C@@H](CCCN=C(N)N)C(=O)N1CCC[C@@H]1C(=O)N[C@@H](CCCCN)C(=O)O`
8890

====

Test system: Delta-type opioid receptor
assay explanation: Receptor selectivity index is the ratio of the apparent KI at delta opioid receptor over the apparent KI at the highest affinity site
In this section we review reported Ratio values for a set of compounds.
// return a plain number; no unit text

Report measured Ratio on Delta-type opioid receptor; entry: `CC(C)C[C@H](NC(=O)[C@H](Cc1ccccc1)NC(=O)CNC(=O)CNC(=O)[C@@H](N)Cc1ccc(O)cc1)C(=O)N[C@@H](CCCN=C(N)N)C(=O)N[C@@H](CCCN=C(N)N)C(=O)N[C@H](Cc1c[nH]c2ccccc12)C(=O)N[C@@H](CCCN=C(N)N)C(=O)N1CCC[C@@H]1C(=O)N[C@@H](CCCCN)C(=O)O`
110

State measured Ratio of the compound `CC(C)C[C@H](NC(=O)[C@H](Cc1ccccc1)NC(=O)[C@@H](Cc1c[nH]c2ccccc12)NC(=O)CNC(=O)[C@@H](N)Cc1ccc(O)cc1)C(=O)N[C@@H](CCCN=C(N)N)C(=O)N[C@@H](CCCN=C(N)N)C(=O)N[C@H](Cc1c[nH]c2ccccc12)C(=O)N[C@@H](CCCN=C(N)N)C(=O)N1CCC[C@@H]1C(=O)N[C@@H](CCCCN)C(=O)O` with Delta-type opioid receptor.
53

Write down measured Ratio (Delta-type opioid receptor) for this compound. `CC(C)C[C@H](NC(=O)[C@@H](Cc1c[nH]c2ccccc12)NC(=O)CNC(=O)CNC(=O)[C@@H](N)Cc1ccc(O)cc1)C(=O)N[C@@H](CCCN=C(N)N)C(=O)N[C@@H](CCCN=C(N)N)C(=O)N[C@H](Cc1c[nH]c2ccccc12)C(=O)N[C@@H](CCCN=C(N)N)C(=O)N1CCC[C@@H]1C(=O)N[C@@H](CCCCN)C(=O)O`
8.6

====

system name: Kappa-type opioid receptor (Homo sapiens, UniProt P41145)
Sequence (P41145 whole entry): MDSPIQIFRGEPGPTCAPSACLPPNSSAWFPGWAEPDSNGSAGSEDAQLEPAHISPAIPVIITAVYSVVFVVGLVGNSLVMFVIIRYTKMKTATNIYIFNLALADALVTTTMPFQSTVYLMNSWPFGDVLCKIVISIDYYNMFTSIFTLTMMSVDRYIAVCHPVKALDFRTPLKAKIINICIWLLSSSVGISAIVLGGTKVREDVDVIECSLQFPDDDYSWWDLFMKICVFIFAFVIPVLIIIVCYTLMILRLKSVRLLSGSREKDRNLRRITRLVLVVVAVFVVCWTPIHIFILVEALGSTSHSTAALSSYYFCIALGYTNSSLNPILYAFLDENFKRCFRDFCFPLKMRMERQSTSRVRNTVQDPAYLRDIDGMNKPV
assay explanation: Compound was evaluated for the agonistic activity against Opioid receptor kappa 1 in rabbit vas deferens.
conditions: target entry is the homologue from another species
In this section we review reported IC50 values for a set of compounds.

Previously resolved entries follow.
CC(C)C[C@H](NC(=O)[C@@H](Cc1c[nH]c2ccccc12)NC(=O)CNC(=O)CNC(=O)[C@@H](N)Cc1ccc(O)cc1)C(=O)N[C@@H](CCCN=C(N)N)C(=O)N[C@@H](CCCN=C(N)N)C(=O)N[C@H](Cc1c[nH]c2ccccc12)C(=O)N[C@@H](CCCN=C(N)N)C(=O)N1CCC[C@@H]1C(=O)N[C@@H](CCCCN)C(=O)O : > 10 µM
CC(C)C[C@H](NC(=O)[C@@H](Cc1c[nH]c2ccccc12)NC(=O)CNC(=O)[C@@H](Cc1c[nH]c2ccccc12)NC(=O)[C@@H](N)Cc1ccc(O)cc1)C(=O)N[C@@H](CCCN=C(N)N)C(=O)N[C@@H](CCCN=C(N)N)C(=O)N[C@H](Cc1c[nH]c2ccccc12)C(=O)N[C@@H](CCCN=C(N)N)C(=O)N1CCC[C@@H]1C(=O)N[C@@H](CCCCN)C(=O)O : > 10 µM

Here is another compound to look at.
Quick one: give measured IC50 for `CC(C)C[C@H](NC(=O)[C@H](Cc1ccccc1)NC(=O)[C@@H](Cc1c[nH]c2ccccc12)NC(=O)CNC(=O)[C@@H](N)Cc1ccc(O)cc1)C(=O)N[C@@H](CCCN=C(N)N)C(=O)N[C@@H](CCCN=C(N)N)C(=O)N[C@H](Cc1c[nH]c2ccccc12)C(=O)N[C@@H](CCCN=C(N)N)C(=O)N1CCC[C@@H]1C(=O)N[C@@H](CCCCN)C(=O)O`
> 10 µM
